Numbers sourced from paper PMC11558679.

Target: native trypsin (Bos taurus)
Sequence (P00760 24-246): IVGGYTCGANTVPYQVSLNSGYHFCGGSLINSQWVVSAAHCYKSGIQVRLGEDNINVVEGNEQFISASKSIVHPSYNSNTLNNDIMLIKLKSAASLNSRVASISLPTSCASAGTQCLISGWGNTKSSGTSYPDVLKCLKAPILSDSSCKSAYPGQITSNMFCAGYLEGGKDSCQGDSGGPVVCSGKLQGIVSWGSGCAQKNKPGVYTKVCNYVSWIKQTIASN
Peptide text beside a SMILES is read from it. * marks the point of attachment. Tos = Cc1ccc(S(=O)(=O)*)cc1; NHBn = c1ccc(CN*)cc1
measuredAttribute: Ki
Kindly format the answer as number then unit.

Record Cc1ccc(S(=O)(=O)NCC(=O)N2CCC[C@H]2C(=O)N[C@@H](CCCNC(=N)N)C(=O)N2CCC[C@H]2C(=O)NCc2ccccc2)cc1 [Tos-Gly-Pro-Arg-Pro-NHBzl] (Tos-GPRP-NHBn) has native trypsin (Bos taurus) Ki equal to 430 µM
